Source listed as paper PMC11313435.

# Test details: ORAC assay (oxygen radical absorbance capacity, ORAC-FL)
# Reported conditions: radical scavenging against peroxyl radicals; mean ± SD of three experiments
In this section we review reported ORAC values for a set of molecules.
Value kind: ORAC (mol TE/mol Compound)

>>> observed_result("CCC1(CC)C=C(C)C(=O)c2c(O)c(C)c(C)c(O)c21")
0.10
>>> observed_result("CCC1(CC)C=CC(=O)c2c(O)c(C)c(C)c(O)c21")
0.83
>>> observed_result("CC1=CC(C)(C)c2c(O)c(C)c(C)c(O)c2C1=O")
0.37
>>> observed_result("Cc1cc(O)c2c(c1O)C(=O)C=CC2(C)C")
3.9
